FYI, the data here is from patent US8431563B2.

- STUDY_SYSTEM: GKRP (Glucokinase Regulatory Protein) with human His-hepatic GK (Homo sapiens)
- Sequence (Q14397 whole entry): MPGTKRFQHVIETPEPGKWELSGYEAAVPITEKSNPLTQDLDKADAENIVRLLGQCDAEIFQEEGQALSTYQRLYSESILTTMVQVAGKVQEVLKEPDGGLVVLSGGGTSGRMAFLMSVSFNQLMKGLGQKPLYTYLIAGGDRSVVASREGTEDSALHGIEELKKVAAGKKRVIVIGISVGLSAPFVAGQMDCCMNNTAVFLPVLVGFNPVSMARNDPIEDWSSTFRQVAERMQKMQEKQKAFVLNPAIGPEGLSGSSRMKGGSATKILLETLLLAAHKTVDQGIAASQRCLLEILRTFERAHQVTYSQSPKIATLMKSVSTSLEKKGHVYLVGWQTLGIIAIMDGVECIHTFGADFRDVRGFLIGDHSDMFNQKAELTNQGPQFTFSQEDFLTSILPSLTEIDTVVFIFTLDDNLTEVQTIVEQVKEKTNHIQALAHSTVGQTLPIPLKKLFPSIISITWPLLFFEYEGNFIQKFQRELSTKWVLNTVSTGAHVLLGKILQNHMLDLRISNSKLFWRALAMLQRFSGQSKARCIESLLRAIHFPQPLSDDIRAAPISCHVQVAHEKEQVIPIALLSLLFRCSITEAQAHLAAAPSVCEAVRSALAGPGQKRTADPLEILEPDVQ
- EXPERIMENT: biochemical
- TEST_SETTINGS: 13C-glucose-6-phosphate formation; 280 nM GKRP (10×), 30 nM GK (5×); read-out: GK-GKRP EC50 (LC MS/MS-2)
pEC50: −log10 of the molar value.

| MOLECULE | pEC50 |
| --- | --- |
| C[C@H]1COCCN1C[C@H]1CN(S(=O)(=O)c2nccs2)CCN1c1ccc(C(C)(O)C(F)(F)F)cc1 (mixture of isomers) [Example 102] | 6.86 |
| CC1(C)C(=O)NCCN1C[C@H]1CN(S(=O)(=O)c2ccc(N)s2)CCN1c1ncc(C(O)(C(F)(F)F)C(F)(F)F)cn1 [Example 227] | 7.68 |
| CC(C)C1C(=O)NCCN1C[C@H]1CN(S(=O)(=O)c2cccs2)CCN1c1ccc(C(C)(O)C(F)(F)F)cc1 (single isomer, unassigned) [Example 181 Peak #2] | 7.85 |
| CC(O)(c1ccc(N2CCN(S(=O)(=O)c3cccs3)C[C@@H]2CN(C2CC2)S(C)(=O)=O)cc1)C(F)(F)F (mixture of isomers) [Example 200] | 7.41 |
| CC(O)(c1ccc(N2CCN(S(=O)(=O)c3cccs3)C[C@@H]2CN(Cc2ccccc2)S(C)(=O)=O)cc1)C(F)(F)F (mixture of isomers) [Example 220] | 7.82 |
| CC(O)(c1ccc(N2CCN(S(=O)(=O)c3cccs3)C[C@@H]2CN2C3COCC2C(O)C3)cc1)C(F)(F)F (single isomer, unassigned) [Example 78 Peak #1] | 6.84 |
| CC(C)CS(=O)(=O)N(C[C@H]1CN(S(=O)(=O)c2cccs2)CCN1c1ccc(C(C)(O)C(F)(F)F)cc1)c1ccccc1 (mixture of isomers) [Example 211] | 7.70 |
| CN(C[C@H]1CN(S(=O)(=O)c2cccs2)CCN1c1ccc(C(C)(O)C(F)(F)F)cc1)S(=O)(=O)c1cccnc1 (mixture of isomers) [Example 217] | 6.12 |
| C[C@H]1CN(S(=O)(=O)c2ccc(N)s2)CCN1c1ccc(C(O)(C(F)(F)F)C(F)(F)F)cc1 [Example 149] | 6.96 |
| CC(O)(c1ccc(N2CCN(S(=O)(=O)c3ccc(N)nc3)C[C@@H]2CC2CCOCC2)cc1)C(F)(F)F (mixture of isomers) [Example 127] | 7.24 |
| CC(O)(c1ccc(N2CCN(S(=O)(=O)c3cccs3)C[C@@H]2C[S+]([O-])c2ccc(F)cc2)cc1)C(F)(F)F (single isomer, unassigned) [Example 191 Peak#2] | 6.60 |
| CC(O)(c1ccc(N2CCN(S(=O)(=O)c3cccs3)C[C@@H]2CN2CCS(=O)(=O)CC2)cc1)C(F)(F)F (mixture of isomers) [Example 85] | 6.32 |
| CC(O)C#Cc1cc(C(O)(C(F)(F)F)C(F)(F)F)ccc1N1CCN(S(=O)(=O)c2cccs2)CC1 (racemic) [Example 151] | 6.00 |
| C[C@H]1COCCN1C[C@H]1CN(S(=O)(=O)c2ccc(N)nc2)CCN1c1ccc(C(O)(C(F)(F)F)C(F)(F)F)cc1 [Example 124] | 7.74 |
| CC(O)(c1ccc(N2CCN(S(=O)(=O)c3cccs3)C[C@@H]2CN2[C@@H]3COC[C@H]2CC(=O)C3)cc1)C(F)(F)F (some centres unmarked) [Example 106] | 7.01 |
| C[C@H]1COCCN1C[C@H]1CN(S(=O)(=O)c2ccc(N)nc2)CCN1c1ccc([C@@](C)(O)C(F)(F)F)cc1 (single isomer, unassigned) [Example 125 Peak #1] | 7.59 |
| CC(O)(c1ccc(N2CCN(S(=O)(=O)c3cccs3)C[C@@H]2CN2[C@@H]3COC[C@H]2CC(O)C3)cc1)C(F)(F)F (some centres unmarked) [Example 107] | 7.80 |
| C[C@H]1COCCN1C[C@H]1CN(S(=O)(=O)c2ccc(N)nc2)CCN1c1ncc(C(C)(O)C(F)(F)F)cn1 (mixture of isomers) [Example 129] | 7.00 |
| CC(O)(c1ccc(N2CCN(S(=O)(=O)c3cccs3)C[C@@H]2CN2CCOC[C@@H]2CO)cc1)C(F)(F)F (single isomer, unassigned) [Example 111 Peak #1] | 7.00 |
| Cn1cnc(COC[C@H]2CN(S(=O)(=O)c3cccs3)CCN2c2ccc(C(C)(O)C(F)(F)F)cc2)c1 (single isomer, unassigned) [Example 119 Peak #2] | 6.69 |
| CC(O)(c1ccc(N2CCN(S(=O)(=O)c3cccs3)C[C@@H]2CN(CC2CCC2)S(C)(=O)=O)cc1)C(F)(F)F (mixture of isomers) [Example 218] | 7.77 |
| CC1(C)C(=O)NCCN1C[C@H]1CN(S(=O)(=O)c2cccs2)CCN1c1ncc(C(O)(C(F)(F)F)C(F)(F)F)cn1 [Example 226] | 7.85 |
| CC(C)CN(C[C@H]1CN(S(=O)(=O)c2cccs2)CCN1c1ccc(C(C)(O)C(F)(F)F)cc1)S(=O)(=O)N(C)C (mixture of isomers) [Example 215] | 7.15 |
